Just for reference, paper PMC8717366 is where these values come from.

# TARGET_DESC: α9β1-VCAM-1 Fc chimera (Homo sapiens, UniProt P05556+Q13797)
# Sequence (Q13797 30-1035, change not shown): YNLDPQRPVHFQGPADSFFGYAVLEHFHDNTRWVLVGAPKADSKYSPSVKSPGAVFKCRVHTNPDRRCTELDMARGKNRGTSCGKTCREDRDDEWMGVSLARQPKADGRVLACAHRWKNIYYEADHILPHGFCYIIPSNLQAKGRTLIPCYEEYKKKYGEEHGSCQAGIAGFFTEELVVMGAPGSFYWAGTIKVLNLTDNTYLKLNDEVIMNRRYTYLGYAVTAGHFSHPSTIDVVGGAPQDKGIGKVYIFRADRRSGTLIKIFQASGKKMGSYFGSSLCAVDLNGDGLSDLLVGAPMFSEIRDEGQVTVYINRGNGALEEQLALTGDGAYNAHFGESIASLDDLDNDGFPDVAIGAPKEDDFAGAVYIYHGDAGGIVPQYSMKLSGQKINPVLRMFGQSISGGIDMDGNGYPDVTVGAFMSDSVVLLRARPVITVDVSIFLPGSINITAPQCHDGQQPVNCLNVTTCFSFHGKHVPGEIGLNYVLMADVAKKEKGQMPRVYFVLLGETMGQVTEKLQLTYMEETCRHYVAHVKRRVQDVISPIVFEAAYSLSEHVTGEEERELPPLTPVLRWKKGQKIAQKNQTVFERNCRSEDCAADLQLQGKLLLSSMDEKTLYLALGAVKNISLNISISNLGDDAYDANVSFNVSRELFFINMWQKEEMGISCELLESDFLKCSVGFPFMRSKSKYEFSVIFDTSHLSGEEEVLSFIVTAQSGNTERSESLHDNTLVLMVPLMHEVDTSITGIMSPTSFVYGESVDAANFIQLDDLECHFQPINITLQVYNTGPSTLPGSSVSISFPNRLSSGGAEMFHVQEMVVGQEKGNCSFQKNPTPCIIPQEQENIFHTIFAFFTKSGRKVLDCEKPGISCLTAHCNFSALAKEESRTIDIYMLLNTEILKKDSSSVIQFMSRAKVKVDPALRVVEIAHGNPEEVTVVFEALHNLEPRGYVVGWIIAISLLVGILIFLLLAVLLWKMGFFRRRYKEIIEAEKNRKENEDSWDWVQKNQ
# Sequence (P05556 21-798, change not shown): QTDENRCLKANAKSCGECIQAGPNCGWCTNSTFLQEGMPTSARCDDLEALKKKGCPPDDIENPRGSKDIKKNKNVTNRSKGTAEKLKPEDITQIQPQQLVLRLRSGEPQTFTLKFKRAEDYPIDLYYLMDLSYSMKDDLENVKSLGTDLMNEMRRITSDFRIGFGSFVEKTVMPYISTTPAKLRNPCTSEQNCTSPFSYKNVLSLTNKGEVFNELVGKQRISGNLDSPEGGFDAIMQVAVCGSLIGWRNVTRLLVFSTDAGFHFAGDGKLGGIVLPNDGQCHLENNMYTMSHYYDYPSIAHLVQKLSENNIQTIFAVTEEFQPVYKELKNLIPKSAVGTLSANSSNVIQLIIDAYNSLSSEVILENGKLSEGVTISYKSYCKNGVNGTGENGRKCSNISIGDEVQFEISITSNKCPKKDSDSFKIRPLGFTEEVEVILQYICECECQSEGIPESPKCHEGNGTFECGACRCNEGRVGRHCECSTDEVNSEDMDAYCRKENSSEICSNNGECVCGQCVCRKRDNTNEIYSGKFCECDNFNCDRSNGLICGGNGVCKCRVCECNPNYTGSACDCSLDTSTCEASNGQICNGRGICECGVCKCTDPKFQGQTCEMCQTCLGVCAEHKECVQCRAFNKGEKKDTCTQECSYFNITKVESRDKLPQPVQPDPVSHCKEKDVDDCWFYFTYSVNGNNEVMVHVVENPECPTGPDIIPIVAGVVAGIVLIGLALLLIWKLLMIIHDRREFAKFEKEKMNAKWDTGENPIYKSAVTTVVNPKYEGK
# PROTOCOL_DETAILS: ELISA binding assay, α9β1 to VCAM-1 Fc chimera
Numbered stars: 1 amine (or outer) side, 2 acyl side, 3 side chain; on linkers, the order of the positions; unused ones are H or OH. Bridge positions count the residues as written; N and C are the ends. Square brackets hold non-standard residues; d marks the D form. Peptide text beside a SMILES is read from it. N(6-aminohexyl)Gly = O=C(CN(CCCCCCN[*:3])[*:1])[*:2]; N(2-Aminoethyl)Gly = O=C(CN(CCN[*:3])[*:1])[*:2]; CO = O=C([*:1])[*:2]; Nlys = NCCCCNCC(=O)O
I'd appreciate it if you could supply pIC50 values for the items below.
Give bare numbers, as −log10 of the molar value.

See these solved cases before continuing.
>>> numeric_result("CSCC[C@@H]1NC(=O)[C@H]([C@@H](C)O)NC(=O)CN(C(=O)[C@@H](N)CCCCN)CCCCCCNC(=O)NCCCCCCN(CC(=O)N[C@@H](CC(C)C)C(N)=O)C(=O)[C@H](CC(=O)O)NC(=O)[C@H](CC(C)C)NC1=O [visabron c (6–6)] (H-K[N(6-aminohexyl)Gly]TMLD[N(6-aminohexyl)Gly]L-NH2; linker 2-7 via CO)")
6.05
>>> numeric_result("CSCC[C@@H]1NC(=O)[C@H]([C@@H](C)O)NC(=O)CN(C(=O)[C@@H](N)CCCCN)CCNC(=O)NCCN(CC(=O)N[C@@H](CC(C)C)C(N)=O)C(=O)[C@H](CC(=O)O)NC(=O)[C@H](CC(C)C)NC1=O [visabron c (2–2)] (H-K[N(2-Aminoethyl)Gly]TMLD[N(2-Aminoethyl)Gly]L-NH2; linker 2-7 via CO)")
5.44

Read the next record carefully.
*Q* Please report the measured pIC50 for CSCC[C@@H]1NC(=O)[C@H]([C@@H](C)O)NC(=O)CN(C(=O)[C@@H](N)CCCCN)CCCCNC(=O)NCCCCN(CC(=O)N[C@@H](CC(C)C)C(N)=O)C(=O)[C@H](CC(=O)O)NC(=O)[C@H](CC(C)C)NC1=O [visabron c (4–4)] (H-K[Nlys]TMLD[Nlys]L-NH2; linker 2-7 via CO)
*A* 6.40
